- System: Vero E6 infected with SARS-CoV-2
- assay procedure: inhibition of SARS-CoV-2 cytopathic effect; higher = more antiviral protection, active = above 15
- test context: 833.33 nM; 48 h
reported endpoint: inhibition of SARS-CoV-2 cytopathic effect (%)
Give your result in % as a bare value.

A selection of reference data follows.
compound	study target	obs value
CN(C)CC/C=C1/c2ccccc2Sc2ccc(Cl)cc21	Vero E6 infected with SARS-CoV-2	-3.59
COc1cn(-c2ccc(-n3cccn3)cc2F)nc(-c2ccnn2-c2ccccc2)c1=O	Vero E6 infected with SARS-CoV-2	2.26
CC(=O)Nc1ccc(C(=O)Nc2ccccc2N)cc1	Vero E6 infected with SARS-CoV-2	-3.01
Oc1ccc(C2(c3ccccc3F)CCC(F)(F)CC2)cc1	Vero E6 infected with SARS-CoV-2	-1.05
CO/N=C(\C(=O)N[C@@H]1C(=O)N2C(C(=O)O)=C(COC(N)=O)CS[C@H]12)c1ccco1	Vero E6 infected with SARS-CoV-2	0.24

Give reported inhibition of SARS-CoV-2 cytopathic effect value for Cc1ccc(-c2ccc(F)cc2COc2ccc(CCC(=O)O)cc2)cc1 0.38

For the compound CO[C@H]1/C=C/O[C@@]2(C)Oc3c(C)c(O)c4c(O)c(c(/C=N/N5CCN(C6CCCC6)CC5)c(O)c4c3C2=O)NC(=O)/C(C)=C\C=C\[C@H](C)[C@H](O)[C@@H](C)[C@@H](O)[C@@H](C)[C@H](OC(C)=O)[C@@H]1C , give its reported inhibition of SARS-CoV-2 cytopathic effect. 1.06

Indicate its recorded inhibition of SARS-CoV-2 cytopathic effect; the compound in question is Cc1ccccc1OCC(O)CO (configuration not stated) -0.01

In one line, give reported inhibition of SARS-CoV-2 cytopathic effect of the entry Nc1ccc(F)cc1NC(=O)c1ccc(CNC(=O)/C=C/c2cccnc2)cc1 [chidamide] . 1.82

Please give the documented inhibition of SARS-CoV-2 cytopathic effect of O=C1CCC2CCC(=O)N12 -1.36

Every entry's value here was drawn from the supplement of paper PMC13380429.
